# testedSystem: human β3-adrenergic receptor (Homo sapiens, UniProt P13945)
# Construct: Full length β3 AR clones (402 amino acids) containing the last 6 amino acids of hβ3—AR are prepared; expressed in transfected cells; host or cells: CHO cells
# Sequence (P13945 whole entry): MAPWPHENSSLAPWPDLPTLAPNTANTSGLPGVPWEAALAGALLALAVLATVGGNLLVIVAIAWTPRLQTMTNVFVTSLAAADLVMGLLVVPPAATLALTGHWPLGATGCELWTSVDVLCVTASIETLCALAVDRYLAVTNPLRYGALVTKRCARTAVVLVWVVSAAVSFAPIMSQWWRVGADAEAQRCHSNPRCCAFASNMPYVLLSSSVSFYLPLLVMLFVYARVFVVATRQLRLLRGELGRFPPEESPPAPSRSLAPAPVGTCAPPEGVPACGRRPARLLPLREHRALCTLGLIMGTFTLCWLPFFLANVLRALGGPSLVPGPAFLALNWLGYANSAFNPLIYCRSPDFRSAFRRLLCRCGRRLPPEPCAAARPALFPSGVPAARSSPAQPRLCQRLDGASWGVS
# testSummary: cAMP response (SPA kit) in CHO cells transfected with human β3 adrenergic receptor
# Format: cell-based
# settings: CHO cells expressing human β3-AR; 10^-9 M to 10^-5 M; 30 min at 37° C.; cAMP by SPA; read-out: EC50(β3)
endpointLabel: pEC50
Give bare numbers, as −log10 of the molar value.

compound	pEC50
COc1cccc(CNC(=O)N2CCC(Nc3ccc(CCNC[C@H](O)COc4ccc(O)cc4)cc3)CC2)c1 [Example 79]	7.39
COc1cccc(CNC(=O)N2CCC(Nc3ccc(CCNC[C@H](O)COc4ccc(O)cc4)cc3)CC2)c1OC [Example 25]	7.19
O=C(c1c[nH]c2ccccc12)N1CCC(Nc2ccc(CCNC[C@H](O)COc3ccc(O)cc3)cc2)CC1 [Example 99]	8.05

Each compound below has a recorded value; state its pEC50.
1. O=C(NCc1ccc(F)cc1)N1CCC(Sc2ccc(CCNC[C@H](O)COc3ccc(O)cc3)cc2)CC1 [Example 42]
2. CCCCCCCCNC(=O)N1CCC(Nc2ccc(CCNC[C@H](O)COc3cccc4[nH]c(=O)[nH]c34)cc2)CC1 [Example 60]

[7.02, 7.92]

Batch request: pEC50 per item, same order as input.
1. O=C(NCc1ccc(O)cc1F)N1CCC(Nc2ccc(CCNC[C@H](O)COc3cccc(O)c3)cc2)CC1 [Example 87]
2. O=C(NCc1ccccc1C(F)(F)F)N1CCC(Nc2ccc(CCNC[C@H](O)COc3ccc(O)cc3)cc2)CC1 [Example 33]
3. O=C([C@@H]1CCCN1S(=O)(=O)c1ccc(F)cc1)N1CCC(Nc2ccc(CCNC[C@H](O)COc3ccc(O)cc3)cc2)CC1 [Example 104]
4. O=C(NCC1(c2ccccc2)CCCC1)N1CCC(S(=O)(=O)c2ccc(CCNC[C@H](O)COc3ccc(O)cc3)cc2)CC1 [Example 46]
5. CCCCCCNC(=O)Nc1ccc(CNC(=O)N2CCC(Nc3ccc(CCNC[C@H](O)COc4ccc(O)cc4)cc3)CC2)cc1 [Example 67]
6. CCN(CC)C(=O)CCNC(=O)N1CCC(Nc2ccc(CCNC[C@H](O)COc3ccc(O)cc3)cc2)CC1 [Example 89]
7. O=C(OCc1ccc(F)cc1)N1CCC(Nc2ccc(CCNC[C@H](O)COc3ccc(O)cc3)cc2)CC1 [Example 121]
8. CCOC(=O)C1CCN(C(=O)N2CCC(Nc3ccc(CCNC[C@H](O)c4ccc(O)c(NS(C)(=O)=O)c4)cc3)CC2)CC1 [Example 51]

8.40
7.26
7.07
6.79
7.54
7.03
7.05
9.00

Fill in pEC50 for record O=C(NCc1ccc(Cl)c(Cl)c1)N1CCC(Nc2ccc(CCNC[C@H](O)COc3ccc(O)cc3)cc2)CC1 [Example 21] 7.52

----------
Structures can show the parent of a compound that is named as a salt.
endpointLabel: melting point

Fill in melting point for each of the 4 compounds listed.
1. O=C(NCCc1ccc(F)cc1)N1CCC(Nc2ccc(CCNC[C@H](O)COc3ccc(O)cc3)cc2)CC1
2. CCCCCCCCS(=O)(=O)N1CCC(Nc2ccc(CCNC[C@H](O)COc3ccc(O)cc3)cc2)CC1
3. C=CCc1ccccc1OC[C@@H](O)CNCCc1ccc(NC2CCN(C(=O)NCCCCCCCC)CC2)cc1 (as salt: salt)
4. Cc1ccsc1C(=O)N1CCC(Nc2ccc(CCNC[C@H](O)COc3cccc4[nH]c(=O)[nH]c34)cc2)CC1 (as salt: salt)

["73 to 77 °C", "64 to 68 °C", "73 to 80 °C", "128 to 130 °C"]
